These measurements were taken from patent US9440957B2.

tested.on: human EGFR L858R (NIH/3T3 cells) (Homo sapiens, UniProt P00533, L858R)
Sequence (P00533 25-1210 L858R): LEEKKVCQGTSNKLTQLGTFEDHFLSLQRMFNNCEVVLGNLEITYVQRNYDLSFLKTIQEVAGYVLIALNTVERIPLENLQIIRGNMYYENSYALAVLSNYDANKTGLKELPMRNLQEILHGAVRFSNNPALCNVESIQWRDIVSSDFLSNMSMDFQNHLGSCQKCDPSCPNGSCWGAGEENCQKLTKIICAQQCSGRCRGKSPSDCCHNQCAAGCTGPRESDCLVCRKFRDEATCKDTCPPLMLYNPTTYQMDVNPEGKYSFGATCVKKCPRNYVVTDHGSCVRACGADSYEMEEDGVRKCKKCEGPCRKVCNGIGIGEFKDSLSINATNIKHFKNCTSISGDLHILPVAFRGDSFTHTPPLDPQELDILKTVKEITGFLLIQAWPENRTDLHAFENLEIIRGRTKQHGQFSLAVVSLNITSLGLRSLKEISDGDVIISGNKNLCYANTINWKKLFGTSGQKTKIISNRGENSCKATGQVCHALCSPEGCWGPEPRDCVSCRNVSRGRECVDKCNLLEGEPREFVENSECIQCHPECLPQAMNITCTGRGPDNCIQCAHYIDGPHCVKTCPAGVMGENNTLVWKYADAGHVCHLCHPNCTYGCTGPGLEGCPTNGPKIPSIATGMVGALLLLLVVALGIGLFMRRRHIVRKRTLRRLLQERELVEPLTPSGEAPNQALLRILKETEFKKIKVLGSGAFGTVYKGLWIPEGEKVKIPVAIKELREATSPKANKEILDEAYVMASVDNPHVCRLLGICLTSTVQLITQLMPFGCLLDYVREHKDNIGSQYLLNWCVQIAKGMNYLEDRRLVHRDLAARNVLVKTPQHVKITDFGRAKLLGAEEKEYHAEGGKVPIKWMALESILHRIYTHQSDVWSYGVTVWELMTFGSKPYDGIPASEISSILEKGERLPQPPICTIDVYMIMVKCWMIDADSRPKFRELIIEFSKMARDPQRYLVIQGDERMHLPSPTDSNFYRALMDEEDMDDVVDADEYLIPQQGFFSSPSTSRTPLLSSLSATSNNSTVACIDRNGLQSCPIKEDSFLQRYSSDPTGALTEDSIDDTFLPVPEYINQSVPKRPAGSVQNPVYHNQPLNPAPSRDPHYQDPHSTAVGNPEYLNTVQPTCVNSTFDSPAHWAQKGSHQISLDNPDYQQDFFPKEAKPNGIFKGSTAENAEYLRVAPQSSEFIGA
experimental.details: EGFR target modulation in engineered NIH/3T3 cell lines (phospho-EGFR Y1068 AlphaLISA), EGFR L858R
Format: cell-based
applied.conditions: engineered NIH/3T3 cells, read-out: NIH3T3 IC50 (μM) EGFR (L858R)
measured.quantity: IC50 (µM)

[1] Cc1cccc2nc(NC(=O)c3cc(F)c(F)c(F)c3)n(C3CCCCN(C(=O)/C=C/CN(C)C)C3)c12 (centres unmarked)
[2] C=CC(=O)N1CCCCC(n2c(NC(=O)c3ccccc3)nc3cccc(C(=O)N4CCS(=O)(=O)CC4)c32)C1 (centres unmarked)
## Input For the two items 1 and 2 , which reports the higher IC50 value? Provide the label of your selected option as the answer.
## Output 2

[P] Cc1cccc2nc(NC(=O)c3cnc(Cl)c(Cl)c3)n([C@@H]3CCCCN(C(=O)/C=C/CN(C)C)C3)c12
[Q] C=CC(=O)N1CCC[C@@H](n2c(NC(=O)c3cccc(C(F)(F)F)c3)nc3cc(C(N)=O)ccc32)C1
## Input Between P and Q , which one has the lower reported IC50 value? Refer to your chosen item by its label in the answer.
## Output P

[1] Cc1cccc2nc(NC(=O)c3ccc(F)cc3F)n(C3CCCCN(C(=O)/C=C/CN(C)C)C3)c12 (centres unmarked)
[2] C=CC(=O)N1CCCC[C@@H](n2c(NC(=O)c3ccccc3)nc3cccc(CN(C)C)c32)C1
## Input Quick one: lower IC50, 1 or 2 ? Kindly give the label for the entry you pick.
## Output 2
(2: 0.002 µM, 1: 0.004 µM)

====

tested.on: H1975 (EGFR L858/T790M) (Homo sapiens, UniProt P00533, L858R/T790M)
Sequence (P00533 25-1210 T790M/L858R): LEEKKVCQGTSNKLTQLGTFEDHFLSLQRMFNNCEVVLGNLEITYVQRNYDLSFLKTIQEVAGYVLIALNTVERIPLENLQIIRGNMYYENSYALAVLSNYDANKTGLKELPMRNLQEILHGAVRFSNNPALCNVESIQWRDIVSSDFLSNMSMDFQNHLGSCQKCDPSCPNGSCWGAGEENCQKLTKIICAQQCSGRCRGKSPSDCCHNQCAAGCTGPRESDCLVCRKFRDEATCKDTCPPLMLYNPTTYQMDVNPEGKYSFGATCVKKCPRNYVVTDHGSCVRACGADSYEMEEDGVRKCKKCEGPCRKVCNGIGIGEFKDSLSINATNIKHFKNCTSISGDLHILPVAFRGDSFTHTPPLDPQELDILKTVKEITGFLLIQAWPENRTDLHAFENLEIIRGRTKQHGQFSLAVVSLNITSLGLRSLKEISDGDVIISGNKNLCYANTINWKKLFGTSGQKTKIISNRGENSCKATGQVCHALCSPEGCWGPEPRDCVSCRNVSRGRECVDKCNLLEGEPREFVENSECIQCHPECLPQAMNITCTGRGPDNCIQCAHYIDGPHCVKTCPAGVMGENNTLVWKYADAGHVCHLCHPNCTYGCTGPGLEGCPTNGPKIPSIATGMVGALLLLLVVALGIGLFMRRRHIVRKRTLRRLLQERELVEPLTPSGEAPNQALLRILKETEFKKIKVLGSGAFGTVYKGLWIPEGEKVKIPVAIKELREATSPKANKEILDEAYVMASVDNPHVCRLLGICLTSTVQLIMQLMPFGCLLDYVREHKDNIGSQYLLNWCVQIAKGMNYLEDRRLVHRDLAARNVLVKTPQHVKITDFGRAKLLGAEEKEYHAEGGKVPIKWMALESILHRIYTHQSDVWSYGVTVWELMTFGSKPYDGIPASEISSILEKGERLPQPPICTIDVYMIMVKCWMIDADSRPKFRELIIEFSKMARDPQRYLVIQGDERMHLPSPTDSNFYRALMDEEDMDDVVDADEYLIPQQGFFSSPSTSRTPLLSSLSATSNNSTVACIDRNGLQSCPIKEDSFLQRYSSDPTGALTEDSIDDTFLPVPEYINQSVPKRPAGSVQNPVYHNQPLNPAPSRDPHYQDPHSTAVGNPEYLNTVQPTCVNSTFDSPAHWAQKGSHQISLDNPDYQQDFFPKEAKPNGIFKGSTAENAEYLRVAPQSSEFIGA
experimental.details: EGFR target modulation in H1975 cell line (phospho-EGFR Y1173 ELISA)
pIC50: −log10 of the molar value.
measured.quantity: pIC50

[
  {
    "molecule": "Cc1cc(C(=O)Nc2nc3cccc(Cl)c3n2[C@@H]2CCCCN(C(=O)/C=C/CNC(C)(C)C)C2)ccn1",
    "pIC50": 8.70
  },
  {
    "molecule": "Cc1cccc2nc(NC(=O)c3ccc(C(F)(F)F)nc3)n(C3CCCCN(C(=O)/C=C/CN(C)C)C3)c12 (stereo not shown)",
    "pIC50": 6.88
  },
  {
    "molecule": "Cc1cc(C(=O)Nc2nc3cccc(C)c3n2[C@@H]2CCCCN(C(=O)/C=C/CN3CCCC3)C2)ccn1",
    "pIC50": 8.15
  },
  {
    "molecule": "Cc1cccc2nc(NC(=O)c3cccc(C(F)(F)F)c3)n(C3CCCCN(C(=O)/C=C/CN(C)C)C3)c12 (stereo not shown)",
    "pIC50": 8.70
  }
]

[A] Cc1cc(C(=O)Nc2nc3cccc(C)c3n2[C@@H]2CCCN(C(=O)/C=C/CN(C)C)C2)ccn1
[B] C=CC(=O)N1CCCC[C@@H](n2c(NC(=O)c3cccc(C(F)(F)F)c3)nc3cccc(C(F)(F)F)c32)C1
[C] Cc1cccc2nc(NC(=O)c3ccnnc3)n([C@@H]3CCCCN(C(=O)C#CCN(C)C)C3)c12
[D] C/C=C/C(=O)N1CCCC[C@@H](n2c(NC(=O)c3cc(C)nc(C)c3)nc3cc(CN4CC[C@H](OC)C4)cc(C)c32)C1
[E] Cc1cc(C(=O)Nc2nc3cccc(Cl)c3n2[C@@H]2CCCCN(C(=O)/C=C/CN3CC(O)C3)C2)ccn1
## Input Place the items in sequence of falling pIC50. State the ranking by listing the labels in the requested order.
## Output C, B, E, D, A
